system: P388 leukemia ip, CD2F1 mice, survival T/C; test: NCI In Vivo Anticancer Drug Screen. Data for tumor model P388 Leukemia (intraperitoneal) in CD2F1 (CDF1) mice; conditions: endpoint: median survival time; dose: 100.0 mg/kg/injection; schedule: Q01DX001 (ip); vehicle: saline with Tween-80; higher = longer survival
Toxic doses and inconclusive results are not listed.
Answer each item with its documented T/C.

In the examples that follow, each entry is paired with its recorded T/C.
>>> reading("CCCCCCCCOC(=O)COc1ccc(Cl)cc1Cl")
"100 % of control"
>>> reading("CCCCCCC(CCC1CCCCC1)C(=O)O (centres undefined)")
"109 % of control"
>>> reading("O=C1C(Cl)=C(Cl)C(=O)C(/C=C/N2CCOCC2)=C1Cl")
"98 % of control"

Next:
Output measured T/C for this item: OC1CCCCC1C1CCCCC1O (centres undefined) 105 % of control
